# Tested on: NOMO1
# ASSAY INFO: cell viability relative to DMSO control; higher = less cytotoxic
# ASSAY CONDITIONS: HPLM + 10% dialyzed FBS; 48 h; 1.71 µM
Output Condition met for records whose cell viability is lower than 90%, Condition not met for records at or above 90%.

1) C\C1=C\N([C@H]2C[C@H](N=[N+]=[N-])[C@@H](CO)O2)C(=O)NC1=O | Condition met
2) CC(=O)N1CCN(c2ccc(OC[C@H]3CO[C@](Cn4ccnc4)(c4ccc(Cl)cc4Cl)O3)cc2)CC1 | Condition not met
3) CCOC(=O)N1CCN(/[N+]([O-])=N/Oc2ccc([N+](=O)[O-])cc2[N+](=O)[O-])CC1 | Condition not met
4) O=C(O)c1ccc(-n2nc(-c3ccccc3O)nc2-c2ccccc2O)cc1 | Condition met

----------
Parameter cell viability: see the listing below.
# Test system: P12-Ichikawa
# ASSAY INFO: cell viability relative to DMSO control; higher = less cytotoxic
# ASSAY CONDITIONS: HPLM + 10% dialyzed FBS; 48 h; 0.00702 µM
READOUT LABEL: cell viability (%)

1. O=C(CO)N1CCC(c2n[nH]c(-c3ccc(Cl)cc3)c2-c2ccncn2)CC1 | 113
2. COc1cc(C(C)=O)ccc1OCCCN1CCC(c2noc3cc(F)ccc23)CC1 | 119
3. COc1cc(Nc2ncc(F)c(Nc3ccc4c(n3)NC(=O)C(C)(C)O4)n2)cc(OC)c1OC | 120
4. O=C1Nc2ccc(Cl)cc2[C@@](C#CC2CC2)(C(F)(F)F)O1 | 90.5
5. CC(=O)N1CCN(c2ccc(OC[C@H]3CO[C@](Cn4ccnc4)(c4ccc(Cl)cc4Cl)O3)cc2)CC1 | 118

----------
Parameter cell viability: see the listing below.
# Test system: SEM cells
# ASSAY INFO: cell viability relative to DMSO control; higher = less cytotoxic
# ASSAY CONDITIONS: HPLM + 10% dialyzed FBS; 48 h; 0.00234 µM
READOUT LABEL: cell viability (%)

1. COc1cc(Nc2ncc(F)c(Nc3ccc4c(n3)NC(=O)C(C)(C)O4)n2)cc(OC)c1OC | 99
2. CCOC(=O)N1CCN(/[N+]([O-])=N/Oc2ccc([N+](=O)[O-])cc2[N+](=O)[O-])CC1 | 70.7
3. CCOC(=O)[C@H](CCc1ccccc1)N[C@@H](C)C(=O)N1CCC[C@H]1C(=O)O | 110
4. CC(=O)OCC(=O)[C@@]12\N=C(C)/O[C@@H]1C[C@H]3[C@@H]4CCC/5=C/C(=O)/C=C\[C@]5(C)[C@H]4[C@@H](O)C[C@]23C | 85.5
5. COc1cc(C(C)=O)ccc1OCCCN1CCC(c2noc3cc(F)ccc23)CC1 | 112
6. CCC1(c2ccc(N)cc2)CCC(=O)NC1=O (centres undefined) | 113
7. OC(=O)\C1=C\N(C2=CC=C(F)C=C2)C3=C(C=C(F)C(=C3)N4CCNCC4)C1=O | 101
8. CN(C)CCc1c[nH]c2ccc(C[C@H]3COC(=O)N3)cc12 | 89.4
9. COC[C@@H](NC(C)=O)C(=O)NCc1ccccc1 | 116

----------
# Test system: P12-Ichikawa
# ASSAY INFO: cell viability relative to DMSO control; higher = less cytotoxic
# ASSAY CONDITIONS: RPMI 5 mM glucose + 10% FBS; 48 h; 0.00234 µM
Parameter cell viability: see the listing below.
READOUT LABEL: cell viability (%)

1. O=C(Nc1cccc(Nc2ncc(Br)c(NCCc3cnc[nH]3)n2)c1)N1CCCC1 | 103
2. Oc1ccc(C2CCN(c3ccnc4ccccc34)CC2)cc1O | 110
3. CCOc1cc(N)c(Cl)cc1C(=O)NCC1CN(Cc2ccc(F)cc2)CCO1 (centres undefined) | 116
4. CC(=O)OCC(=O)[C@@]12\N=C(C)/O[C@@H]1C[C@H]3[C@@H]4CCC/5=C/C(=O)/C=C\[C@]5(C)[C@H]4[C@@H](O)C[C@]23C | 123

----------
Parameter cell viability: see the listing below.
# System: SEM cells
# ASSAY INFO: cell viability relative to DMSO control; higher = less cytotoxic
# ASSAY CONDITIONS: RPMI 5 mM glucose + 10% dialyzed FBS; 48 h; 0.00702 µM
READOUT LABEL: cell viability (%)

1) CC(=O)O[C@@]1(CC[C@H]2[C@@H]3\C=C(C)/C4=C/C(=O)CC[C@]4(C)[C@H]3CC[C@]12C)C(C)=O | 104
2) CC(=O)OCC(=O)[C@@]12\N=C(C)/O[C@@H]1C[C@H]3[C@@H]4CCC/5=C/C(=O)/C=C\[C@]5(C)[C@H]4[C@@H](O)C[C@]23C | 107
3) NC(CO)(CO)CCc1ccc(Sc2cccc(OCc3ccccc3)c2)cc1Cl | 99.6

----------
Parameter cell viability: see the listing below.
# System: SEM cells
# ASSAY INFO: cell viability relative to DMSO control; higher = less cytotoxic
# ASSAY CONDITIONS: RPMI 5 mM glucose + 10% FBS; 48 h; 5.12 µM
READOUT LABEL: cell viability (%)

1) CC(=O)C\1=C(/C)C2=CN=C(NC3=CC=C(C=N3)N4CCNCC4)N=C2N(C5CCCC5)C1=O | 61.6
2) CCOC(=O)N1CCN(/[N+]([O-])=N/Oc2ccc([N+](=O)[O-])cc2[N+](=O)[O-])CC1 | 40.7
3) CNC1[C@@H](O)C(O[C@@H]2C(O)C(O[C@H]3O[C@H]([C@@H](C)NC)CC[C@H]3N)[C@@H](N)C[C@H]2N)OC[C@]1(C)O (some centres not stated) | 90.4
4) Cc1cccc(C)c1OCC(=O)N[C@@H](Cc1ccccc1)[C@@H](O)C[C@H](Cc1ccccc1)NC(=O)[C@H](C(C)C)N1CCCNC1=O | 79.6
5) CC(=O)Nc1ccc([C@H](C)C(=O)Nc2ncc(C(C)C)s2)cc1 | 76
6) CCOc1cc(N)c(Cl)cc1C(=O)NCC1CN(Cc2ccc(F)cc2)CCO1 (configuration not stated) | 109
7) Cc1nccn1CC1CCc2c(c3ccccc3n2C)C1=O (configuration not stated) | 108

----------
# Tested on: NOMO1
# ASSAY INFO: cell viability relative to DMSO control; higher = less cytotoxic
# ASSAY CONDITIONS: RPMI 5 mM glucose + 10% dialyzed FBS; 48 h; 0.569 µM
READOUT LABEL: cell viability (%)

1) N[S+](=O)([O-])c1cc(Cl)c(Cl)c([S+](N)(=O)[O-])c1 | 98.5
2) [NH2][Pt]([NH2])([Cl])[Cl] | 96.8
3) CN1CCC(CC1)COC2=CN=C(N=C2)C3=CC(=CC=C3)CN4/N=C(\C=C/C4=O)C5=CC(=CC=C5)C#N | 102

----------
# System: SEM cells
# ASSAY INFO: cell viability relative to DMSO control; higher = less cytotoxic
# ASSAY CONDITIONS: RPMI 5 mM glucose + 10% dialyzed FBS; 48 h; 5.12 µM
Parameter cell viability: see the listing below.
READOUT LABEL: cell viability

1. Cc1ncc(OC[C@@]2(c3cccc(F)c3)C[C@H]2C(=O)Nc2ccc(F)cn2)c(C)n1 | 122%
2. CC(=O)O[C@@]1(CC[C@H]2[C@@H]3\C=C(C)/C4=C/C(=O)CC[C@]4(C)[C@H]3CC[C@]12C)C(C)=O | 96.2%
3. CC(C)Nc1cc(C(F)(F)F)cc2nc(NC(=O)c3cccnc3)nn12 | 16.3%

----------
Parameter AUC of viability dose-response curve: see the listing below.
# Test system: SEM cells
# ASSAY INFO: AUC of viability dose-response curve (% viability x log10 dose units); higher = less sensitive
# ASSAY CONDITIONS: RPMI 5 mM glucose + 10% dialyzed FBS; 48 h
READOUT LABEL: AUC of viability dose-response curve

1) CNC1[C@@H](O)C(O[C@@H]2C(O)C(O[C@H]3O[C@H]([C@@H](C)NC)CC[C@H]3N)[C@@H](N)C[C@H]2N)OC[C@]1(C)O (some centres undefined) | 472
2) Cn1cc(-c2ccc3nnc(C(F)(F)c4ccc5ncccc5c4)n3n2)cn1 | 455
3) Cc1ncc(OC[C@@]2(c3cccc(F)c3)C[C@H]2C(=O)Nc2ccc(F)cn2)c(C)n1 | 452
4) Oc1ccc(C2CCN(c3ccnc4ccccc34)CC2)cc1O | 404

----------
# System: NOMO1
# ASSAY INFO: cell viability relative to DMSO control; higher = less cytotoxic
# ASSAY CONDITIONS: RPMI 5 mM glucose + 10% FBS; 48 h; 0.0211 µM
READOUT LABEL: cell viability (%)

1. COc1cc2c(Oc3ccc(NC(=O)C4(C(=O)Nc5ccc(F)cc5)CC4)cc3F)ccnc2cc1OCCCN1CCOCC1 | 94.6
2. C[C@@H]1COCCN1C\2=C\C(=O)N\3CC[C@H](N(CC4=CN=CC(=C4)Cl)C3=N2)C(F)(F)F | 93.8
3. Cc1c(Cn2c(C)nc3c(C(=O)O)cc(N4CCOCC4)cc32)cccc1C(F)(F)F | 108
4. CC(=O)N1CCN(c2ccc(OCc3nn(C)c(C)c3-c3cccc4c(CCCOc5cccc6ccccc56)c(C(=O)O)n(Cc5cccnc5)c34)cc2)CC1 | 124
5. NC(=O)c1ncn([C@@H]2O[C@H](CO)[C@@H](O)[C@H]2O)n1 | 108

src = the supplement of paper PMC11451515
